Biological target: T1, Recombinant human sgM-CSF (human, UniProt P09603 33-255)
T1 sequence: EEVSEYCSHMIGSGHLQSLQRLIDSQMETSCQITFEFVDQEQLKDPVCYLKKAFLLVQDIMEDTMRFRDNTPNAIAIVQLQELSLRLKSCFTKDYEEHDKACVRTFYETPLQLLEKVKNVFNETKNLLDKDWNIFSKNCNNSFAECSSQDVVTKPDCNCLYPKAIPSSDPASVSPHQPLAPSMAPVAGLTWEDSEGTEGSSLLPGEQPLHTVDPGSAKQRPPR
Experiment: cell-based or functional assay
Label t when IC50, inhibition of M-NFS-60 proliferation induced by recombinant human M-CSF (9.5 pM) < 3 pM; otherwise f.

INSERT INTO assay_data (binder, class_assignment) VALUES
  ('HeRX1-10G1, IgG1 (antibody, V domains shown, tested as IgG1) VH: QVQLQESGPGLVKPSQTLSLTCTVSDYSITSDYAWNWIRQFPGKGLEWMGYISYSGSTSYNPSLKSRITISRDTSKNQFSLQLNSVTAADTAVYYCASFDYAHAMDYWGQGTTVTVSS VL: DIVLTQSPAFLSVTPGEKVTFTCQASQSIGTSIHWYQQKTDQAPKLLIKYASESISGIPSRFSGSGSGTDFTLTISSVEAEDAADYYCQQINSWPTTFGGGTKLEIKR', 'f'),
  ('Camille, IgG1_D265A (antibody, V domains shown, tested as IgG1 with D265A in the Fc (EU index)) VH: QVQLQQSGPGLVKPSQTLSLTCAISGESVSTSSAAWNWIRQSPSRGLEWLGRTYYRSKWKHEYAVSVKSRITINPDTSKNQFSLQLNSVTPEDTAVYYCARDRYYYSAFDYWGQGTLVTVSS VL: QSALTQPASVSGSPGQSITISCTGTSSDVGGYNSVSWYQQHPGKAPKLLIYAVSNRPSGVSNRFSGSKSGNTASLTISGLQAEDEADYYCASYDERFTRVFGGGTKLTVLG', 't'),
  ('Blanche, IgG1_D265A (antibody, V domains shown, tested as IgG1 with D265A in the Fc (EU index); Parental antibody of Caline, Camille, Celine) VH: QVQLQQSGPGLVKPSQTLSLTCAISGDSVSSNSAAWNWIRQSPSRGLEWLGRTYYRSKWKHEYAMSVKSRITINPDTSKNQFSLQLNSVTPEDTAVYYCARDRYYYSAFDYWGQGTLVTVSS VL: DIALTQPASVSGSPGQSITISCTGTSSDVGGYNSVSWYQQHPGKAPKLMIYAVSNRPSGVSNRFSGSKSGNTASLTISGLQAEDEADYYCASYDERFTRVFGGGTKLTVLG', 't'),
  ('Meriem, IgG1_D265A (antibody, V domains shown, tested as IgG1 with D265A in the Fc (EU index)) VH: QVQLQQSGPGLVKPSQTLSLTCAISGDSVSTSSAAWNWIRQSPSRGLEWLGRTYYRSKWKKEYAQSVKSRITINPDTSKNQFSLQLNSVTPEDTAVYYCARDRYYYSAFDYWGQGTLVTVSS VL: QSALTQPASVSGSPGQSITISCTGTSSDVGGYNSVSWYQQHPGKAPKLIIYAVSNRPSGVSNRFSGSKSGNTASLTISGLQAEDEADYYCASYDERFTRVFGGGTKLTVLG', 'f'),
  ('Servane, IgG1_D265A (antibody, V domains shown, tested as IgG1 with D265A in the Fc (EU index)) VH: EVQLVESGGGLVKPGGSLRLSCAASGFTFSTYAISWVRQAPGKGLEWVGFIKSKHNSGTTEYAAPVKGRFTISRDDSKNTLYLQMNSLKTEDTAVYYCARMRYYSDLYFDPWGQGTLVTVSS VL: SYELTQPPSVSVSPGQTASITCSGDKLGQKYVSWYQQKPGQSPVLVISQDRKRPSGIPERFSGSNSGNTATLTISGTQAEDEADYYCQTWTHLQWVFGGGTKLTVLG', 'f'),
  ('Caline, IgG1_D265A (antibody, V domains shown, tested as IgG1 with D265A in the Fc (EU index)) VH: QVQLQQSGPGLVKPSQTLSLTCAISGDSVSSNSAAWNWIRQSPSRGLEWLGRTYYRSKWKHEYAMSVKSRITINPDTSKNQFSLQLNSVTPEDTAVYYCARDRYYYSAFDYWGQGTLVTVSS VL: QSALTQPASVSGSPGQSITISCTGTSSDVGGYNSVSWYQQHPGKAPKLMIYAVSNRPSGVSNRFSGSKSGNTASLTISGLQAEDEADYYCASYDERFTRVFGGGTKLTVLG', 'f');
